- protocol_summary: log P by HPLC on reversed-phase column (C 18), EEC Directive 79/831 Annex V.A8
- Type: physicochemical
- run_conditions: log P, neutral range; HPLC on reversed-phase column (C 18), 55° C.
endpoint_name: LOGP_NEUTRAL
# print the numeric value only

Please report the measured LOGP_NEUTRAL for N#Cc1ccc(CNC(=O)c2cc(-c3ccc(C(F)(F)F)cc3)cc(NC(=O)CC3CC3)n2)cc1 [Example I-055]
3.82

Tell us which LOGP_NEUTRAL value is on record for CC(C)C(=O)Nc1cc(-c2ccc(OC(F)(F)F)cc2)cc(C(=O)NCc2ccc(C#N)cc2F)n1 [Example I-081]
4.09

Specify measured LOGP_NEUTRAL for N#CC1CCC(CNC(=O)c2cc(-c3ccc(C(F)(F)C(F)(F)F)c(F)c3)cc(NC(=O)C3CC3)n2)CC1 (stereo not drawn) [Example I-185] .
4.14

---

- protocol_summary: log P by HPLC on reversed-phase column (C 18), EEC Directive 79/831 Annex V.A8
- Assay type: physicochemical
- run_conditions: log P (HCOOH), acidic range pH 2.7, 0.1% aqueous formic acid and acetonitrile; reversed-phase column (C 18), 55° C.
endpoint_name: LOGP_HCOOH
Answer with the value's number alone.

Indicate the recorded LOGP_HCOOH value for this compound: `Cn1ncc2cccc(CNC(=O)c3cc(-c4ccc(OC(F)(F)F)cc4)cc(NC(=O)C4CC4)n3)c21`
3.81

Write down LOGP_HCOOH measured for item `N#Cc1ccc(/C=N/NC(=O)c2cc(-c3ccc(OC(F)(F)F)cc3)cc(NC(=O)C3CC3)n2)cc1`
3.88

Indicate the recorded LOGP_HCOOH value for this compound: `N#CC1(NC(=O)c2cc(-c3ccc(OC(F)(F)F)cc3)cc(NC(=O)C3CC3)n2)CC1`
3.39

// fetch LOGP_HCOOH given entry `CC(C)C(=O)Nc1cc(-c2ccc(OC(F)(F)F)cc2)cc(C(=O)NCc2ccc(-c3cnco3)cc2)n1`
3.99

Hello, please tell me recorded LOGP_HCOOH for this one: `O=C(NCc1ccc(N2CCCC2=O)cc1)c1cc(-c2ccc(OC(F)(F)F)cc2)cc(NC(=O)C2CC2)n1`
3.55

For the compound `N#Cc1ccc(NC(=O)c2cc(-c3ccc(C(F)(F)F)cc3)cc(NC(=O)C3CC3)n2)cc1` , give its reported LOGP_HCOOH.
4.40

Name the recorded LOGP_HCOOH of the item `N#Cc1ccc(CNC(=O)c2cc(-c3ccc(S(=O)(=O)C(F)(F)F)cc3)cc(NC(=O)C3CC3)n2)cn1` in your answer.
3.24

Supply reported LOGP_HCOOH belonging to this compound: `O=C(NCc1ccc(Cl)nc1)c1cc(-c2ccc(C(F)(F)F)cc2)cc(NC(=O)C2CC2)n1`
3.67

Report LOGP_HCOOH, nothing else, for this compound: `Cn1ccc(-c2ccc(CNC(=O)c3cc(-c4ccc(OC(F)(F)F)cc4)cc(NC(=O)C4CC4)n3)cc2)n1`
3.86

---

- protocol_summary: log P by HPLC on reversed-phase column (C 18), EEC Directive 79/831 Annex V.A8
- Assay type: physicochemical
- run_conditions: log P (HCOOH), acidic range at pH 2.7, 0.1% aqueous formic acid and acetonitrile; HPLC on reversed-phase column (C 18), 55° C.
LOGP_HCOOH vs 4: less than gives y; not less than gives n.

Decide: LOGP_HCOOH of `N#Cc1ccc(CNC(=O)c2cc(-c3ccc(OC(F)(F)C(F)(F)F)cc3)cc(NC(=O)C3CC3)n2)cc1` strictly below 4?
n

Determine whether this molecule shows LOGP_HCOOH lower than 4 (ties excluded): `N#Cc1ccc(CNC(=O)c2cc(-c3ccc(SC(F)F)cc3)cc(NC(=O)C3CC3)n2)cc1`
y

For this molecule, is LOGP_HCOOH lower than 4? `O=C(NC1CSC1)c1cc(-c2ccc(OC(F)(F)F)cc2)cc(NC(=O)C2CC2)n1`
y

Does `O=C(NCc1ccc([N+](=O)[O-])cc1)c1cc(-c2ccc(C(F)(F)C(F)(F)F)cc2)cc(NC(=O)C2CC2)n1` have LOGP_HCOOH strictly under 4?
n

Take the molecule `O=C(NCC1CC1)c1cc(-c2ccc(OC(F)(F)F)cc2)cc(NC(=O)C2CC2)n1` and say whether its LOGP_HCOOH is less than 4.
y

hey, is LOGP_HCOOH for `CC1(NC(=O)c2cc(-c3ccc(OC(F)(F)F)cc3)cc(NC(=O)C3CC3)n2)CSC1` lower than 4 or not?
n

Threshold test, LOGP_HCOOH < 4: `O=C(NCC1CCCCC1)c1cc(-c2ccc(OC(F)(F)F)cc2)cc(NC(=O)C2CC2)n1`
n

Lab note: LOGP_HCOOH threshold 4. Does this molecule come in strictly under it? `N#Cc1ccc(CNC(=O)c2cc(-c3ccc(OC(F)(F)C(F)F)cc3)cc(NC(=O)C3CC3)n2)cc1`
y

---

- protocol_summary: log P by HPLC on reversed-phase column (C 18), EEC Directive 79/831 Annex V.A8
- Format: physicochemical
- run_conditions: log P (HCOOH), acidic range at pH 2.7, 0.1% aqueous formic acid and acetonitrile; HPLC on reversed-phase column (C 18), 55° C.
endpoint_name: LOGP_HCOOH

Find the measured LOGP_HCOOH of O=C(NCC1CCCC1)c1cc(-c2ccc(OC(F)(F)F)cc2)cc(NC(=O)C2CC2)n1 [Example I-170] and report it.
4.68

Determine its reported LOGP_HCOOH: N#Cc1ccc(CNC(=O)c2cc(-c3ccc(N(C(F)(F)F)C(F)(F)F)cc3)cc(NC(=O)C3CC3)n2)cc1 [Example I-225]
4.40

Quickly give me recorded LOGP_HCOOH for N#Cc1ccc(C2(NC(=O)c3cc(-c4ccc(OC(F)(F)F)cc4)cc(NC(=O)C4CC4)n3)CC2)cc1 [Example I-159]
4.08

For the molecule CCCNC(=O)c1cc(-c2ccc(OC(F)(F)F)cc2)cc(NC(=O)C2CC2)n1 [Example I-132] , give its reported LOGP_HCOOH.
3.78

Give LOGP_HCOOH for O=C(NCc1ccc([N+](=O)[O-])cc1)c1cc(-c2ccc(C(F)(F)C(F)(F)F)c(F)c2)cc(NC(=O)C2CC2)n1 [Example I-209]
4.34

Could you please provide reported LOGP_HCOOH for O=C(NC1CCS(=O)(=O)C1)c1cc(-c2ccc(OC(F)(F)F)cc2)cc(NC(=O)C2CC2)n1 (stereo not shown) [Example I-187] ? Thanks!
3.09

Specify reported LOGP_HCOOH for the molecule shown: COC(=O)C1(NC(=O)c2cc(-c3ccc(OC(F)(F)F)cc3)cc(NC(=O)C3CC3)n2)CC1 [Example I-138]
3.42

Give me measured LOGP_HCOOH, please, for this molecule: O=C(NCc1ccc(-c2nnco2)cc1)c1cc(-c2ccc(OC(F)(F)F)cc2)cc(NC(=O)C2CC2)n1 [Example I-112]
3.41

Input CCc1cc(C(F)(F)C(F)(F)F)cc(C)c1-c1cc(NC(=O)C2CC2)nc(C(=O)NCc2ccc(C#N)cc2)c1 [Example I-148] , output reported LOGP_HCOOH.
4.85

Quickly give me recorded LOGP_HCOOH for N#CCNC(=O)c1cc(-c2ccc(OC(F)(F)F)cc2)cc(NC(=O)C2CC2)n1 [Example I-131]
3.15

Report measured LOGP_HCOOH; entry is O=C(NCC1CCC(C(F)(F)F)CC1)c1cc(-c2ccc(OC(F)(F)F)cc2)cc(NC(=O)C2CC2)n1 (stereo not shown) [Example I-156]
4.97

Answer with reported LOGP_HCOOH of N#Cc1ccc2[nH]nc(NC(=O)c3cc(-c4ccc(OC(F)(F)F)cc4)cc(NC(=O)C4CC4)n3)c2c1 [Example I-166]
3.68

Specify LOGP_HCOOH for N#Cc1ccc(CNC(=O)c2cc(-c3ccc(OC(F)(F)F)cc3)cc(NC(=O)C3CC(F)(F)C3)n2)cc1 [Example I-213] and stop.
4.14

Return reported LOGP_HCOOH. Input molecule: CC(C)C(=O)N(C)c1cc(-c2ccc(OC(F)(F)F)cc2)cc(C(=O)NCc2ccc(C#N)cc2)n1 [Example I-217]
4.02

Read off the recorded LOGP_HCOOH for N#Cc1c(F)cc(CNC(=O)c2cc(-c3ccc(OC(F)(F)F)cc3)cc(NC(=O)C3CC3)n2)cc1F [Example I-111]
4.18

Give the measured LOGP_HCOOH for CC(C)C(=O)Nc1cc(-c2ccc(OC(F)(F)F)cc2)cc(C(=O)NCc2cc(F)c(C#N)cc2F)n1 [Example I-110]
4.33

Name the recorded LOGP_HCOOH of the item N#Cc1ccc(CNC(=O)c2cc(-c3ccc(C(F)F)c(F)c3)cc(NC(=O)C3CC3)n2)cc1 [Example I-222] in your answer.
3.39

Please report the measured LOGP_HCOOH for NC(=S)c1ccc(CNC(=O)c2cc(-c3ccc(OC(F)(F)F)cc3)cc(NC(=O)C3CC3)n2)cc1 [Example I-214]
3.45

Input N#CC1CCC(NC(=O)c2cc(-c3ccc(OC(F)(F)F)cc3)cc(NC(=O)C3CC3)n2)CC1 (stereo not shown) [Example I-197] , output reported LOGP_HCOOH.
3.76
